Cited source for all entries: ChEMBL document CHEMBL3596165

Test system: T47D
Experiment: Antiproliferative activity against human T47D cells at 50 ug/ml after 24 hrs by BrdUrd incorporation assay
Type: functional
Details: read-out: GI
measured endpoint: inhibition of growth at 50 µg/mL (%)

>>> print(df.to_string())
                                     mol                 measured_endpoint  value_unit  recorded_result
0      O=c1c(-c2cccs2)nnc2n1CCN2c1ccccc1  inhibition of growth at 50 µg/mL           %               95
1  Cc1cccc(N2CCn3c2nnc(-c2cccs2)c3=O)c1C  inhibition of growth at 50 µg/mL           %               90
2  O=c1c(-c2ccco2)nnc2n1CCN2c1cccc(Cl)c1  inhibition of growth at 50 µg/mL           %               20
3   Cc1ccc(N2CCn3c2nnc(-c2cccs2)c3=O)cc1  inhibition of growth at 50 µg/mL           %               95
4    COc1ccccc1N1CCn2c1nnc(-c1cccs1)c2=O  inhibition of growth at 50 µg/mL           %               80
5  O=c1c(-c2cccs2)nnc2n1CCN2c1ccc(Cl)cc1  inhibition of growth at 50 µg/mL           %               90

* * *

Tested on: T47D
Assay: Antiproliferative activity against human T47D cells after 24 hrs by BrdUrd incorporation assay
Type: functional, cell-based
pIC50: −log10 of the molar value.
We begin with a simple list: items and their reported pIC50.
measured endpoint: pIC50

In [3]: df
Out[3]:
                                        mol  measured_endpoint  recorded_result
0     Cc1cccc(N2CCn3c2nnc(-c2cccs2)c3=O)c1C              pIC50             4.05
1         O=c1c(-c2cccs2)nnc2n1CCN2c1ccccc1              pIC50             4.05
2     O=c1c(-c2cccs2)nnc2n1CCN2c1cccc(Cl)c1              pIC50             4.10
3  O=c1c(-c2cccs2)nnc2n1CCN2c1ccc(Cl)c(Cl)c1              pIC50             4.10
4       COc1ccccc1N1CCn2c1nnc(-c1cccs1)c2=O              pIC50             4.00
5      Cc1ccc(N2CCn3c2nnc(-c2cccs2)c3=O)cc1              pIC50             4.05

* * *

A collection of compounds and their measured pIC50
Tested on: HeLa
Assay: Antiproliferative activity against human HeLa cells after 72 hrs by BrdUrd incorporation assay
Format: functional, cell-based
pIC50: −log10 of the molar value.
measured endpoint: pIC50

In [3]: df
Out[3]:
                                        mol  measured_endpoint  recorded_result
0         O=c1c(-c2cccs2)nnc2n1CCN2c1ccccc1              pIC50             4.10
1     Cc1cccc(N2CCn3c2nnc(-c2cccs2)c3=O)c1C              pIC50             4.00
2      Cc1ccc(N2CCn3c2nnc(-c2cccs2)c3=O)cc1              pIC50             4.10
3       O=c1c(-c2cccs2)nnc2n1CCN2c1ccccc1Cl              pIC50             4.10
4  O=c1c(-c2cccs2)nnc2n1CCN2c1ccc(Cl)c(Cl)c1              pIC50             4.15
5     O=c1c(-c2cccs2)nnc2n1CCN2c1ccc(Cl)cc1              pIC50             4.10
6     O=c1c(-c2cccs2)nnc2n1CCN2c1cccc(Cl)c1              pIC50             4.10
7        Cc1ccccc1N1CCn2c1nnc(-c1cccs1)c2=O              pIC50             4.05
8       COc1ccccc1N1CCn2c1nnc(-c1cccs1)c2=O              pIC50             4.00
